// half-life at 1 µM lookup, one value per entry
# ASSAY_DETAILS: metabolic stability in human hepatocytes
# Assay type: in vitro ADME
# EXPERIMENTAL_PARAMETERS: human, cryopreserved human hepatocytes (suspension); tetrahydronaphthalen-2-ol; 37° C., sampled 0-120 min, LC-MS/MS; read-out: Human hepatocyte T 1/2
Numbers only here, please. The scale is min.

COMPOUND	VALUE_UNIT	half-life at 1 µM
C[C@H]1[C@@H](c2ccc(O)cc2)Cc2ccc(O)cc2[C@H]1Cc1c(F)cccc1F (single isomer, unassigned) [Compound 11i]	min	29.4

We now examine a further compound.
Record C[C@@H]1[C@H](c2ccc(O)cc2)Cc2ccc(O)cc2[C@@H]1Cc1c(F)cccc1F (single isomer, unassigned) [Compound 12i] , field half-life at 1 µM: 33.7
